# Format: in vivo, human
# REPORTED CONDITIONS: human, plasma, iv, 0.5 mg, CL, geometric mean (%CVb), moderate hepatic impairment, single 0.5 mg IV
READOUT NAME: clearance (mL/min)
# value in mL/min; strip the unit string

Prompt: Endpoint output: clearance of `COc1ccsc1CNCC[C@@]1(c2ccccn2)CCOC2(CCCC2)C1` . Value?
Completion: 565

---

# Assay type: in vivo, human
# REPORTED CONDITIONS: human, plasma, iv, 0.5 mg, Vz, arithmetic mean ± SD, moderate hepatic impairment, single 0.5 mg IV
READOUT NAME: Vd (L)
# value in L; strip the unit string

Prompt: Endpoint output: Vd of COc1ccsc1CNCC[C@@]1(c2ccccn2)CCOC2(CCCC2)C1 [Oliceridine] . Value?
Completion: 215

---

# Format: in vivo, human
# REPORTED CONDITIONS: human, plasma, iv, 0.5 mg, t½, geometric mean (%CVb), moderate hepatic impairment, single 0.5 mg IV
READOUT NAME: half-life (h)
# value in h; strip the unit string

Prompt: Endpoint output: half-life of COc1ccsc1CNCC[C@@]1(c2ccccn2)CCOC2(CCCC2)C1 [Oliceridine] . Value?
Completion: 4.3

---

# Assay type: in vivo, human
# REPORTED CONDITIONS: human, plasma, iv, 0.5 mg, CL, geometric mean (%CVb), severe hepatic impairment, single 0.5 mg IV
READOUT NAME: clearance (mL/min)
# value in mL/min; strip the unit string

Prompt: Endpoint output: clearance of COc1ccsc1CNCC[C@@]1(c2ccccn2)CCOC2(CCCC2)C1 [Oliceridine] . Value?
Completion: 697

---

# Assay type: in vivo, human
# REPORTED CONDITIONS: human, plasma, iv, 0.5 mg, Cmax, arithmetic mean (SD), ESRD subjects, single 0.5 mg IV; dose-normalized to 1 mg
READOUT NAME: Cmax (ng/mL)
# value in ng/mL; strip the unit string

Prompt: Endpoint output: Cmax of `COc1ccsc1CNCC[C@@]1(c2ccccn2)CCOC2(CCCC2)C1` . Value?
Completion: 9.96

---

# Type: in vivo, human
# REPORTED CONDITIONS: human, plasma, iv, 0.5 mg, Vz, geometric mean (%CVb), mild hepatic impairment, single 0.5 mg IV
READOUT NAME: Vd (L)
# value in L; strip the unit string

Prompt: Endpoint output: Vd of COc1ccsc1CNCC[C@@]1(c2ccccn2)CCOC2(CCCC2)C1 [Oliceridine] . Value?
Completion: 167

---

# Assay type: in vivo, human
# REPORTED CONDITIONS: human, plasma, iv, 0.5 mg, Cmax, geometric mean (%CVb), mild hepatic impairment, single 0.5 mg IV; dose-normalized to 1 mg
READOUT NAME: Cmax
Express your answer as a number followed by its unit.

Prompt: Endpoint output: Cmax of `COc1ccsc1CNCC[C@@]1(c2ccccn2)CCOC2(CCCC2)C1` . Value?
Completion: 41.4 ng/mL

---

# Format: in vivo, human
# REPORTED CONDITIONS: human, plasma, iv, 0.5 mg, Vz, geometric mean (%CVb), moderate hepatic impairment, single 0.5 mg IV
READOUT NAME: Vd (L)
# value in L; strip the unit string

Prompt: Endpoint output: Vd of `COc1ccsc1CNCC[C@@]1(c2ccccn2)CCOC2(CCCC2)C1` . Value?
Completion: 212
